B1: CAMK2B (parent)
chain: YQQIKAGAYDFPSPEWDTVTPEAK

variants of: B1; assay: protein stability index of a GFP-peptide fusion (GPS, HEK-293T) (PSI 1-6); higher = more stable; details: c terminus: a fixed tail appended;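 note: lentivirally expressed fusions sorted by FACS into six bins by GFP to DsRed ratio, PSI derived from sequencing read proportions per bin multiplied by bin number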
protein stability index overview
property name: protein stability index

- V19L: 3.53
- A23M: 3.28
- E15H: 2.91
- E22P: 2.93
- F11M: 4.04
- P12N: 3.94
- E22N: 3.41
- E22S: 2.97
- W16C: 4.18
- A8D: 3.91
- A6W: 2.28
- A8I: 3.05
- E22A: 2.9
- K5N: 3.92
- Q2Y: 3.6
- A6V: 3.12
- I4V: 3.93
- S13E: 4.12
- K24I: 3.59
- Y1H: 4.58
- T20H: 3.86
- K24C: 3.38
